# tested_on: UniProtKB P28845
# Sequence (P28845 whole entry): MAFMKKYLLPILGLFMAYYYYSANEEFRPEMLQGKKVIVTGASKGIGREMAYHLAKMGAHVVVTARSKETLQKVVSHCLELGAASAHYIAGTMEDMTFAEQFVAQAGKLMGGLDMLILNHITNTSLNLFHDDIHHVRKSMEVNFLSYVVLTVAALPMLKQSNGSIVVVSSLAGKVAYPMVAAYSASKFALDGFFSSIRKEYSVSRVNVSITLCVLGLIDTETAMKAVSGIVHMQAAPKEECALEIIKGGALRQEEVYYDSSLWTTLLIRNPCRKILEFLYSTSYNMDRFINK
# test_conditions: Biological Test Example 1; 111.1 nM compound; 0.1111 µM
Lab note: anything with Average % inhibition at 111.1 nM at or over 50% counts as True; the rest go in False.

Challenge: Reported Average % inhibition at 111.1 nM at or above 50%? O=C1OC(CCO)(c2ccccc2F)CCN1c1cccc(-c2ccc(F)cc2)n1 (single isomer, unassigned) [EXAMPLE 104 Isomer 1]
Response given: False

Challenge: Does C[C@@H](c1ccc(Br)cc1)N1CC[C@](CC(O)CO)(c2ccc(F)cc2)OC1=O (single isomer, unassigned) [EXAMPLE 144 Isomer 2] have a reported Average % inhibition at 111.1 nM of at least 50%?
Response given: True

Challenge: Is Average % inhibition at 111.1 nM at least 50%? Consider CC(O)C[C@@]1(c2cccs2)CCN([C@@H](C)c2ccc(-c3ccc(F)cc3)cc2)C(=O)O1 (single isomer, unassigned) [EXAMPLE 167 Isomer 2]
Response given: True

Challenge: Determine whether measured Average % inhibition at 111.1 nM meets or exceeds 50% for C=CCC1(c2cccs2)CCN([C@@H](C)c2ccc(-c3ccc(F)cc3)cc2)C(=O)O1 (single isomer, unassigned) [EXAMPLE 160 Isomer 2]
Response given: True

Challenge: Hi, just wondering whether C=CCC1(c2ccc(F)cc2)CCN([C@@H](C)c2ccc(Br)cn2)C(=O)O1 (single isomer, unassigned) [EXAMPLE 128 Isomer 1] shows Average % inhibition at 111.1 nM of 50% or higher.
Response given: False

Challenge: Has C[C@@H](c1ccccc1)N1CCC(C)(c2ccccc2)OC1=O (single isomer, unassigned) [EXAMPLE 82 Isomer 2] a recorded Average % inhibition at 111.1 nM greater than or equal to 50%?
Response given: True

Challenge: Please tell me: is the molecule C[C@H](c1ccccc1)N1CCC(C)(c2ccccc2)OC1=O (single isomer, unassigned) [EXAMPLE 83 Isomer 2] at or over 50% in terms of Average % inhibition at 111.1 nM?
Response given: False

Challenge: Could you please find out whether O=C1OC(CCO)(c2ccccc2F)CCN1c1cccc(-c2ccc(F)cc2)n1 (single isomer, unassigned) [EXAMPLE 104 Isomer 2] has Average % inhibition at 111.1 nM that meets 50% or exceeds it?
Response given: True

Challenge: Please tell me: is the molecule O=C1OC(CCO)(c2ccccc2)CCN1c1ccc(F)c(-c2ccc(F)cc2)c1 (single isomer, unassigned) [EXAMPLE 96 Isomer 1] at or over 50% in terms of Average % inhibition at 111.1 nM?
Response given: True

Challenge: Is Average % inhibition at 111.1 nM for O=C1OC(CCO)(c2ccccc2)CCN1c1ccc(F)c(-c2ccc(F)cc2)c1 (single isomer, unassigned) [EXAMPLE 96 Isomer 2] at or above 50%?
Response given: False

Challenge: Entry C=CC1(c2ccc(F)cc2)CCN([C@@H](C)c2ccccc2)C(=O)O1 (single isomer, unassigned) [EXAMPLE 113 Isomer 2] : is its Average % inhibition at 111.1 nM no less than 50%?
Response given: True

Challenge: Reported Average % inhibition at 111.1 nM reaches at least 50% for C=CCC1(c2ccc(F)cc2)CCN([C@@H](C)c2ccc(Br)cn2)C(=O)O1 (single isomer, unassigned) [EXAMPLE 128 Isomer 2] ?
Response given: False

Taken from patent US8575156B2.
